test system: Pseudomonas aeruginosa; experiment: Antibacterial activity against mexX, mexB deficient Pseudomonas aeruginosa NB52023-CDK005 harboring gyrAT83I by broth microdilution method; type: functional
# MIC per entry

// below: answered molecules
molecule: O=C(O)c1cn(C2CC2)c2cc(N3CCN(CCOCCOCCOCCN4CCN(c5cc6c(cc5F)c(=O)c(C(=O)O)cn6C5CC5)CC4)CC3)c(F)cc2c1=O
target of assay: Pseudomonas aeruginosa
MIC: 32 µg/mL

molecule: O=C(O)c1cn(C2CC2)c2cc(N3CCN(CCOCCOCCOCCOCCOCCN4CCN(c5cc6c(cc5F)c(=O)c(C(=O)O)cn6C5CC5)CC4)CC3)c(F)cc2c1=O
target of assay: Pseudomonas aeruginosa
MIC: > 32 µg/mL

molecule: O=C(O)c1cn(C2CC2)c2cc(N3CCN(CCOCCOCCOc4ccc5ccc(=O)oc5c4)CC3)c(F)cc2c1=O
target of assay: Pseudomonas aeruginosa
MIC: > 32 µg/mL

molecule: CC[C@H]1OC(=O)[C@H](C)[C@@H](O[C@H]2C[C@@](C)(OC)[C@@H](O)[C@H](C)O2)[C@H](C)[C@@H](O[C@@H]2O[C@H](C)C[C@H](N(C)C)[C@H]2O)[C@](C)(O)C[C@@H](C)C(=O)[C@H](C)[C@@H](O)[C@]1(C)O [ERYTHROMYCIN]
target of assay: Pseudomonas aeruginosa
MIC: > 32 µg/mL

molecule: O=C(CCN1CCN(c2cc3c(cc2F)c(=O)c(C(=O)O)cn3C2CC2)CC1)NCCOCCNC(=O)CCN1CCN(c2cc3c(cc2F)c(=O)c(C(=O)O)cn3C2CC2)CC1
target of assay: Pseudomonas aeruginosa
MIC: > 32 µg/mL

molecule: Cc1cc(C(=O)N2CCN(c3cc4c(cc3F)c(=O)c(C(=O)O)cn4C3CC3)CC2)cc(C(=O)N2CCN(c3cc4c(cc3F)c(=O)c(C(=O)O)cn4C3CC3)CC2)c1
target of assay: Pseudomonas aeruginosa
MIC: 8 µg/mL

molecule: O=C(CN1CCN(c2cc3c(cc2F)c(=O)c(C(=O)O)cn3C2CC2)CC1)NCCCN1CCN(CCCNC(=O)CN2CCN(c3cc4c(cc3F)c(=O)c(C(=O)O)cn4C3CC3)CC2)CC1
target of assay: Pseudomonas aeruginosa
MIC: > 32 µg/mL

molecule: O=C(O)c1cn(C2CC2)c2cc(N3CCN(C(=O)c4cccc(C(=O)N5CCN(c6cc7c(cc6F)c(=O)c(C(=O)O)cn7C6CC6)CC5)c4)CC3)c(F)cc2c1=O
target of assay: Pseudomonas aeruginosa
MIC: > 32 µg/mL

# context switch: different molecule, same MIC
Measured MIC of `C=CCCC(=O)N1CCN(c2cc3c(cc2F)c(=O)c(C(=O)O)cn3C2CC2)CC1` : > 32 µg/mL
